Data credit: PubChem BioAssay (NCI)

Test system: HCT-116 colon
assay.protocol: NCI-60 one-dose screen, 48 h (100 = growth as untreated, 0 = no growth, -100 = all killed)
experimental.conditions: 10 µM unless noted
The panel holds about 83,000 compounds, 20% with a hit somewhere; the sample as a whole holds those more often.
The label depends only on growth: Satisfied if it is at least 20%, Not satisfied if it is smaller.

- compound: "COC(=O)c1c2c(c(C)[n+]([O-])c1C)C(=O)C(NCc1ccccc1)=CC2=O"
  assigned.category: "Not satisfied"
- compound: "O=C(Cc1ccc(/C=C/C(=O)c2ncc[nH]2)cc1)Nc1cc(F)c(F)c(F)c1"
  assigned.category: "Not satisfied"
- compound: "Cc1cccc(NC(=O)Cn2cc(CN3CCN(c4ccnc5cc(Cl)ccc45)CC3)nn2)c1"
  assigned.category: "Satisfied"
- compound: "CC(=O)Nc1sc2c(c1-c1nc3ccccc3s1)CNC2"
  assigned.category: "Not satisfied"
- compound: "Cc1cc(N2CCN(CC(=O)Nc3ccc4c(ccn4Cc4ccccc4)c3)CC2)nc(N2CCOCC2)n1"
  assigned.category: "Satisfied"
- compound: "CN(C)CCC(=O)C1CC1"
  assigned.category: "Satisfied"
- compound: "Cc1cc(C(=O)CCCC(=O)c2cc(C)c(O)c(C)c2)cc(C)c1O"
  assigned.category: "Satisfied"
- compound: "O=c1cc(C(F)(F)F)c2cc(-c3cc4ccccc4c(=O)o3)c(O)cc2o1"
  assigned.category: "Satisfied"
- compound: "CCSc1ccnc(N)n1"
  assigned.category: "Satisfied"
- compound: "O=C(O)c1cn(C2CC2)c2cc(N3CCN(C(=O)N4CCOCC4)CC3)c(F)cc2c1=O"
  assigned.category: "Satisfied"
- compound: "Cc1cc(=O)oc2cc(Oc3nc(Br)cn4c(Br)cnc34)ccc12"
  assigned.category: "Satisfied"
- compound: "CCOC(=O)c1cn2ncnc(Oc3ccc(NC(=O)NC4CC4)c(Cl)c3)c2c1C"
  assigned.category: "Satisfied"
- compound: "COCCOC(C)C(/C=N/NC(N)=S)=N/NC(N)=S (centres undefined)"
  assigned.category: "Not satisfied"
- compound: "C=C(C)[C@@H]1CC[C@]2(C(=O)N3CCNCC3)CC[C@]3(C)[C@H](CC[C@@H]4[C@@](C)(CCC(=O)N5CCNCC5)[C@H](C(=C)C)CC[C@]43C)[C@@H]12"
  assigned.category: "Not satisfied"
- compound: "COc1ccc2c(c1)C(C)Cc1c(ncnc1-n1cnc3cc(C)ccc31)N2C (centres undefined)"
  assigned.category: "Not satisfied"
- compound: "CN1C(=O)/C(=C/c2ccc(C(=O)Nc3ncc(Cc4cccc(C(F)(F)F)c4)s3)cc2)SC1=S"
  assigned.category: "Satisfied"
- compound: "CC(C)(C)c1ccc(S(=O)(=O)Oc2ccc(-c3sc4cc(OS(=O)(=O)c5ccc(C(C)(C)C)cc5)ccc4c3C(=O)c3ccc(OCCN4CCCCC4)cc3)cc2)cc1"
  assigned.category: "Satisfied"
- compound: "CC1=C2CC/C(C)=C/CC[C@]3(C)O[C@H]3CC/C(C)=C/[C@H]2OC1"
  assigned.category: "Satisfied"
- compound: "COC(=O)c1c(C)nc(C)c2c1C(=O)C=C(NCc1ccccc1)C2=O"
  assigned.category: "Satisfied"
- compound: "N#Cc1c(-c2ccccc2)cc(-c2ccccc2)n(CCCCC(=O)NO)c1=O"
  assigned.category: "Not satisfied"
- compound: "CN1CCN(c2ccc(NC3=CC(=O)c4ncncc4C3=O)cc2)CC1"
  assigned.category: "Not satisfied"
- compound: "Cc1ccc(C)c2c1sc1nc(N3CCOCC3)c(C#N)c(=O)n12"
  assigned.category: "Satisfied"
- compound: "CCCCC#Cc1c(I)n(C2OC(CO[Si](C)(C)C(C)(C)C)C3OC(C)(C)OC32)c(=O)n(C(=O)c2ccccc2)c1=O (centres undefined)"
  assigned.category: "Not satisfied"
- compound: "CCOC(=O)c1ccc[nH]1"
  assigned.category: "Satisfied"
- compound: "COCC(=O)Oc1cc(-c2ccc(C)cc2C)c(OC(=O)COC)c(-c2ccc(C)cc2C)c1"
  assigned.category: "Not satisfied"
- compound: "COc1cc2c(cc1-c1c(C)noc1C)ncc1nc(CN3CCOCC3)n([C@H](C)COC(F)F)c12"
  assigned.category: "Satisfied"
- compound: "CS(=O)(=O)Nc1cc(-c2ccc3ncnc(Nc4ccc5c(cnn5Cc5ccncc5)c4)c3c2)cnc1Cl"
  assigned.category: "Satisfied"
- compound: "Cc1ccc(C2CC(c3cccc(Nc4ccncc4)c3)=Nc3c(N)nc(N)nc3N2)cc1 (centres undefined)"
  assigned.category: "Satisfied"
- compound: "CN(C)/C(N)=N/N=C(\\c1ccccc1)c1ccccn1"
  assigned.category: "Satisfied"
- compound: "COc1cc(-c2ccc(-c3ccc(C(=N)N)cc3)s2)cc(OC)c1OC"
  assigned.category: "Not satisfied"
- compound: "CCCC(=O)NC(c1ccc2c(c1)OCO2)c1cc(Cl)c2cccnc2c1O (centres undefined)"
  assigned.category: "Satisfied"
- compound: "Cc1ccc2c(c1)=C/C(=C\\c1cc(-c3ccccc3)[nH]c1O)C(=O)N=2"
  assigned.category: "Not satisfied"
- compound: "c1csc(-c2cn3nc(-c4c[nH]c5ccccc45)sc3n2)c1"
  assigned.category: "Not satisfied"
- compound: "CCOC(=O)c1[nH]cc2c1CCc1sc(Nc3ccccn3)nc1-2"
  assigned.category: "Satisfied"

----------
Tested on: MALME-3M melanoma
assay.protocol: NCI-60 one-dose screen, 48 h (100 = growth as untreated, 0 = no growth, -100 = all killed)
experimental.conditions: 10 µM unless noted
Compounds without any hit were thinned out: in the full panel of roughly 83,000, 20% have a hit.
Category key, based on recorded growth: lower band: < 40%; central band: ≥ 40% and < 90%; upper band: ≥ 90%

- compound: "COc1ccc(C(=O)Nc2ncc(Cc3ccc(Cl)cc3)s2)cc1"
  assigned.category: "central band"
- compound: "O=Nc1ccc(NC(=O)Nc2ccc([N+](=O)[O-])cc2)cc1"
  assigned.category: "upper band"
- compound: "Cc1ccc(OCCOCCOCCOc2ccc(C)n(O)c2=S)c(=S)n1O"
  assigned.category: "central band"
- compound: "COC1C(O)CC(OC2CC(OC3CC(O[C@@H]4C(=O)c5c(cc6cc(OC7CC(OC8CC(O)C(O)C(C)O8)C(O)C(C)O7)c(C)c(O)c6c5O)CC4[C@H](OC)C(=O)C(C)=O)OC(C)C3O)OC(C)C2O)OC1C (some centres not stated)"
  assigned.category: "lower band"
- compound: "O=C(Nc1cc(Cl)ccc1O)c1ccccc1Nc1ccnc(C(F)(F)F)c1"
  assigned.category: "lower band"
- compound: "COc1ccc2c(c1)c(-c1nc(-c3ccc4ccccc4c3)cs1)cn2C"
  assigned.category: "upper band"
- compound: "CC(C)=CC(=O)N[C@H]1CC[C@]2(C)C3CC[C@]4(C)C(C(C)N(C)C)=CCC4C3CCC2[C@H]1O (some centres not stated)"
  assigned.category: "lower band"
- compound: "O=C(c1c[nH]c2ccccc12)c1n[nH]c(=S)n1-c1ccc([N+](=O)[O-])cc1"
  assigned.category: "upper band"
- compound: "COC(=O)c1c2c(c[n+]([O-])c1C)C(=O)C=C(NCc1ccccc1)C2=O"
  assigned.category: "lower band"
- compound: "O=C1CCC(C(=O)N/N=C/c2cc(F)ccc2F)N1 (configuration not stated)"
  assigned.category: "upper band"
- compound: "O=c1cc(-c2ccccc2)nc(SCc2nc3cc(Cl)c(Cl)cc3[nH]2)[nH]1"
  assigned.category: "upper band"
- compound: "CCOC(=O)NCCCC(=O)NCCc1ccccc1"
  assigned.category: "upper band"
- compound: "OC1(c2ccccc2)c2ccccc2N(c2ccccc2)c2ccc(Cl)cc21 (configuration not stated)"
  assigned.category: "lower band"
- compound: "C=C(C)[C@@H]1CC[C@]2(CO)CC[C@]3(C)[C@H](CC[C@@H]4[C@@](C)(CCCN)[C@H](C(=C)C)CC[C@]43C)[C@@H]12"
  assigned.category: "lower band"
- compound: "COc1ccc(C(=O)/C=C/c2ccccc2)cc1S(N)(=O)=O"
  assigned.category: "upper band"
- compound: "Cc1ccc(C2CC(c3cccc(Nc4ccncc4)c3)=Nc3c(N)nc(N)nc3N2)cc1 (configuration not stated)"
  assigned.category: "central band"
- compound: "COc1ccc(C2CC(n3ccnc3)c3cc(OC)c(OC)c(OC)c32)cc1O (configuration not stated)"
  assigned.category: "central band"
- compound: "COc1cc(-c2ccc[nH]2)[nH]c1/C=C1\\N=C(C)C(CC(=O)OCC(C)(C)C)=C1C"
  assigned.category: "lower band"
- compound: "O=CN1N=C(c2cccc(Nc3ccnc4cc(Cl)ccc34)c2)CC1c1ccc(Cl)cc1 (configuration not stated)"
  assigned.category: "central band"
- compound: "Cc1cc2oc(/C=C/c3ccccc3)cc(=O)c2c(C)c1Cl"
  assigned.category: "upper band"
